Molecular target: full-length NS3 (1-631) protein (HCV NS3 helicase) (Hepatitis C virus genotype 1a, UniProt P27958)
Construct: Recombinant, purified, full-length NS3 (1-631) protein
Sequence (P27958 1027-1657 T1100M/T1173A/K1247Q/A1303G/S1327L/G1556E/R1608W): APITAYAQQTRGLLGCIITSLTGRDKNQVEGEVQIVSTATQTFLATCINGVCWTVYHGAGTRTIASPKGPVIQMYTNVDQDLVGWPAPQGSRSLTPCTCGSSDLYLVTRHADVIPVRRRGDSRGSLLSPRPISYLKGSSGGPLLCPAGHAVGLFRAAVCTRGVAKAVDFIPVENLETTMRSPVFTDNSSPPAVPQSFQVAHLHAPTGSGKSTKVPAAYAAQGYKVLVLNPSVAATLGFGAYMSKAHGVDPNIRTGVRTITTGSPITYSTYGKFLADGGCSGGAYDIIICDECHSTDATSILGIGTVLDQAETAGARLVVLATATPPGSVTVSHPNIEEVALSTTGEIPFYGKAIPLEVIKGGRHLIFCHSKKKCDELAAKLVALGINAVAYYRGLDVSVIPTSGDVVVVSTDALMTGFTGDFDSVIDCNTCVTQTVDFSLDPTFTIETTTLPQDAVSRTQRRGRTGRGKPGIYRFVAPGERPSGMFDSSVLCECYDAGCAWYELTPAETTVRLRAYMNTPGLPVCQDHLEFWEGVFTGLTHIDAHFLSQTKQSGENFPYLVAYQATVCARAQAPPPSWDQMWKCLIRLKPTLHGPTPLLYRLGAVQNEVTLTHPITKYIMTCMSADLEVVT
Assay: HCV Helicase TR-FRET Unwinding Assay
Type: biochemical
Conditions: second TR-FRET IC50 column (c2) of Table 4, same head as the first, inhibition of DNA unwinding
Listed compounds paired with reported IC50

- Compound: "Cc1cc(/C=C/C(=O)NCCC(=O)O)c(Cl)cc1Sc1ccc(F)cc1"
  IC50: "10 to 50 µM"
- Compound: "COC(=O)C1CCN(C(=O)/C=C/c2ccc(Sc3ccc(F)cc3)cc2Cl)CC1"
  IC50: "10 to 50 µM"
- Compound: "O=C(O)C1CCN(C(=O)/C=C/c2ccc(Sc3ccc(F)cc3)cc2C(F)(F)F)CC1 [Example 31B]"
  IC50: "10 to 50 µM"
- Compound: "CCN(CC)C(=O)/C=C/c1ccc(Sc2ccc(F)cc2)cc1Cl"
  IC50: "10 to 50 µM"
- Compound: "CCN(CC)C(=O)/C=C/c1cc(C)c(Sc2ccc(F)cc2)cc1Cl"
  IC50: "10 to 50 µM"
- Compound: "Cc1cc(/C=C/C(=O)Nc2cccc(C(=O)O)c2)c(Cl)cc1Sc1ccc(F)cc1"
  IC50: "< 10 µM"
- Compound: "O=C(/C=C/c1ccccc1Cl)NCCO"
  IC50: "10 to 50 µM"
- Compound: "Cc1cc(/C=C/C(=O)N2CCCCC2)c(Cl)cc1Sc1ccc(F)cc1 [Example 16G]"
  IC50: "10 to 50 µM"
- Compound: "O=C(O)C1CCN(C(=O)/C=C/c2ccc(Sc3ccc(F)cc3)cc2Cl)CC1"
  IC50: "10 to 50 µM"
- Compound: "O=C(/C=C/c1ccc(Sc2ccc(F)cc2)cc1Cl)N1CCCCC1"
  IC50: "< 10 µM"
- Compound: "COc1ccccc1Sc1ccc(/C=C/C(=O)NCCC(=O)O)c(Cl)c1"
  IC50: "10 to 50 µM"
- Compound: "COc1ccccc1Sc1ccc(/C=C/C(=O)N2CCC(C(=O)O)CC2)c(Cl)c1"
  IC50: "10 to 50 µM"
- Compound: "Cc1cc(/C=C/C(=O)N2CCN(C(=O)c3ccoc3)CC2)c(Cl)cc1Sc1ccc(F)cc1"
  IC50: "10 to 50 µM"
- Compound: "O=C(/C=C/c1ccc(Sc2ccc(F)cc2)cc1Cl)N1CCN(C(=O)c2ccoc2)CC1"
  IC50: "10 to 50 µM"
- Compound: "Cc1cc(/C=C/C(=O)N2CCOCC2)c(Cl)cc1Sc1ccc(F)cc1"
  IC50: "10 to 50 µM"
- Compound: "COC(=O)c1cccc(NC(=O)/C=C/c2ccc(Sc3ccc(F)cc3)cc2Cl)c1"
  IC50: "< 10 µM"

###

Target: full-length NS3 (1-631) protein (HCV NS3 helicase) (Hepatitis C virus genotype 1a)
Construct: Recombinant, purified, full-length NS3 (1-631) protein
Assay: HCV Helicase TR-FRET Unwinding Assay
Format: biochemical
Conditions: Table 4, inhibition of DNA unwinding, 2.5 nM NS3, 100 μM ATP
pIC50: −log10 of the molar value.
Reported property: pIC50

- Molecule: "O=C(/C=C/c1ccc(Sc2ccc(F)cc2)cc1Cl)N1CCOCC1 [Example 3]"
  Reported property: "pIC50"
  Result: "4.30 to 5.00"
- Molecule: "CC(=O)N1CCN(C(=O)/C=C/c2ccc(N(C)C)cc2Cl)CC1 [Example 9B]"
  Reported property: "pIC50"
  Result: "> 5.00"
- Molecule: "O=C(/C=C/c1ccccc1Cl)Nc1ccccc1 [Example 35]"
  Reported property: "pIC50"
  Result: "4.30 to 5.00"
- Molecule: "CCOC(=O)CCNC(=O)/C=C/c1cc(C)c(Sc2ccc(F)cc2)cc1Cl [Example 19]"
  Reported property: "pIC50"
  Result: "4.30 to 5.00"
- Molecule: "O=C(/C=C/c1ccccc1Cl)NCCO [Example 33]"
  Reported property: "pIC50"
  Result: "4.30 to 5.00"
- Molecule: "COc1ccccc1Sc1ccc(/C=C/C(=O)N2CCN(C(=O)c3ccoc3)CC2)c(Cl)c1 [Example 27]"
  Reported property: "pIC50"
  Result: "4.30 to 5.00"
- Molecule: "COC(=O)c1cccc(NC(=O)/C=C/c2ccc(Sc3ccc(F)cc3)cc2Cl)c1 [Example 7]"
  Reported property: "pIC50"
  Result: "> 5.00"
- Molecule: "O=C(/C=C/c1ccc(Sc2ccc(F)cc2)cc1Cl)N1CCCCC1 [Example 2]"
  Reported property: "pIC50"
  Result: "> 5.00"
- Molecule: "COc1ccccc1Sc1ccc(/C=C/C(=O)N2CCC(C(=O)O)CC2)c(Cl)c1Cl [Example 32D]"
  Reported property: "pIC50"
  Result: "4.30 to 5.00"
- Molecule: "Cc1cc(/C=C/C(=O)N2CCN(C(=O)c3ccoc3)CC2)c(Cl)cc1Sc1ccc(F)cc1 [Example 17]"
  Reported property: "pIC50"
  Result: "4.30 to 5.00"

###

Listed molecules paired with reported IC50
Molecular target: full-length NS3 (1-631) protein (HCV NS3 helicase) (Hepatitis C virus genotype 1a, UniProt P27958)
Construct: Recombinant, purified, full-length NS3 (1-631) protein
Assay: HCV Helicase TR-FRET Unwinding Assay
Type: biochemical
Settings: second TR-FRET IC50 column (c2) of Table 4, same head as the first, inhibition of DNA unwinding
Reported property: IC50

- Molecule: "O=C(/C=C/c1ccccc1Cl)N1Cc2ccccc2C1 [Example 34]"
  Result: "10 to 50 µM"
- Molecule: "CC(=O)N1CCN(C(=O)/C=C/c2ccc(N(C)C)cc2Cl)CC1 [Example 9B]"
  Result: "< 10 µM"
- Molecule: "COc1ccccc1Sc1ccc(/C=C/C(=O)N2CCN(C(=O)c3ccoc3)CC2)c(Cl)c1 [Example 27]"
  Result: "10 to 50 µM"
- Molecule: "COc1ccccc1Sc1ccc(/C=C/C(=O)N2CCC(N3CCCC3)CC2)c(Cl)c1 [Example 30]"
  Result: "10 to 50 µM"
- Molecule: "CCOC(=O)CCNC(=O)/C=C/c1cc(C)c(Sc2ccc(F)cc2)cc1Cl [Example 19]"
  Result: "10 to 50 µM"
- Molecule: "CN(C)c1ccc(/C=C/C(=O)NCCCn2ccnc2)c(Cl)c1 [Example 11]"
  Result: "10 to 50 µM"
- Molecule: "Cc1cc(/C=C/C(=O)N2CCC(C(=O)O)CC2)c(Cl)cc1Sc1ccc(F)cc1 [Example 22]"
  Result: "< 10 µM"
- Molecule: "CN(C)c1ccc(/C=C/C(=O)N2CCN(C(=O)c3ccoc3)CC2)c(Cl)c1 [Example 12]"
  Result: "10 to 50 µM"
- Molecule: "COc1ccccc1Sc1ccc(/C=C/C(=O)NCCCN(C)C)c(Cl)c1 [Example 24B]"
  Result: "10 to 50 µM"
- Molecule: "COC(=O)C1CCN(C(=O)/C=C/c2ccc(N(C)C)cc2Cl)CC1 [Example 14]"
  Result: "10 to 50 µM"
- Molecule: "CN(C)c1ccc(/C=C/C(=O)NCCN2CCOCC2)c(Cl)c1 [Example 10]"
  Result: "10 to 50 µM"
- Molecule: "O=C(/C=C/c1ccc(Sc2ccc(F)cc2)cc1Cl)Nc1cccc(C(=O)O)c1 [Example 8]"
  Result: "< 10 µM"
